- Test system: TYRO3
- experimental-parameters: concentration: 1 μM,replicates: in singlicate; n = 1;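 also: KINOMEscan kinase panel screen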
metric: %Inh (%)

[
  {
    "molecule": "COc1cccc(CNC(=O)NC2CCN(c3ccnc(Nc4cc(OC)c(OC)c(OC)c4)n3)C2)c1 (centres unmarked) [GSK1379765]",
    "quantitative-result": 0
  },
  {
    "molecule": "Cc1nnc(-c2ccc3occ(-c4ccc(S(C)=O)cc4)c3n2)o1 (centres unmarked)",
    "quantitative-result": 0
  },
  {
    "molecule": "CC(=O)Nc1ccc(-c2cc3ncnc(SCC(=O)O)c3s2)cc1",
    "quantitative-result": 0
  },
  {
    "molecule": "C[C@@H](Oc1cc(-n2cnc3cc(-c4ccncc4)ccc32)sc1C(N)=O)c1ccccc1Cl [GSK479719]",
    "quantitative-result": 15
  },
  {
    "molecule": "CS(=O)(=O)c1cccc(CNc2nc(Nc3ccc4c(c3)[C@@H]3C[C@@H]4CNC3=O)ncc2C(F)(F)F)c1",
    "quantitative-result": 0
  },
  {
    "molecule": "O=C(Nc1cccc(C(F)(F)F)c1)c1cccc(Oc2ccc3nccn3n2)c1",
    "quantitative-result": 2
  },
  {
    "molecule": "CCn1c(-c2nonc2N)nc2cncc(Br)c21 [SB-738004]",
    "quantitative-result": 0
  },
  {
    "molecule": "COC(=O)c1cccc(NC(=O)NC2CCN(c3ccnc(Nc4cc(OC)c(OC)c(OC)c4)n3)C2)c1 (centres unmarked) [GSK1379767]",
    "quantitative-result": 0
  }
]

###

- System: WNK2
- experimental-parameters: concentration: 1 μM,replicates: in singlicate; n = 1
1 means recorded %Inh is 5% or above; 0 means it is below 5%.

[
  {
    "compound": "CN(c1ccc2c(c1)nc(NCc1ccc(F)cc1)n2C)c1ccnc(Nc2ccc(CS(C)(=O)=O)cc2)n1.Cl",
    "category": 0
  },
  {
    "compound": "CCn1c(-c2nonc2N)nc2cncc(Br)c21",
    "category": 1
  },
  {
    "compound": "CC(=O)Nc1ccc(-c2cc3ncnc(SCC(=O)O)c3s2)cc1",
    "category": 0
  },
  {
    "compound": "NC(=O)Nc1sc(-c2ccc(F)cc2)cc1C(N)=O",
    "category": 0
  },
  {
    "compound": "COC(=O)c1cccc(NC(=O)NC2CCN(c3ccnc(Nc4cc(OC)c(OC)c(OC)c4)n3)C2)c1 (stereo not drawn)",
    "category": 1
  },
  {
    "compound": "CCCC(=O)Nc1n[nH]c2ncccc12",
    "category": 0
  },
  {
    "compound": "C[C@@H](Oc1cc(-n2cnc3ccc(-c4ccncc4)cc32)sc1C(N)=O)c1ccccc1Cl",
    "category": 1
  },
  {
    "compound": "COc1cccc(CNC(=O)NC2CCN(c3ccnc(Nc4cc(OC)c(OC)c(OC)c4)n3)C2)c1 (stereo not drawn)",
    "category": 1
  },
  {
    "compound": "O=C(Nc1cccc(Oc2ccc3nccn3n2)c1)Nc1cccc(C(F)(F)F)c1",
    "category": 0
  },
  {
    "compound": "Cn1ccc2ncnc(Oc3ccc(NC(=O)Nc4cccc(C(F)(F)F)c4)c(F)c3)c21",
    "category": 0
  },
  {
    "compound": "CNC(=O)c1ccccc1Nc1nc(Nc2cccc(CS(C)(=O)=O)c2)ncc1C.O=CO",
    "category": 1
  },
  {
    "compound": "FC(F)(F)c1cc(Br)cc(Nc2nccc(-c3cnn4ncccc34)n2)c1",
    "category": 1
  },
  {
    "compound": "COc1cc(Nc2nccc(N3CCC(NC(=O)c4cccc(C#N)c4)C3)n2)cc(OC)c1OC (stereo not drawn)",
    "category": 1
  },
  {
    "compound": "CC(C)c1nc(-c2cccc(NS(=O)(=O)c3ccccc3)c2)c(-c2ccnc(Nc3ccc4c(c3)CN(C)CC4)n2)s1",
    "category": 0
  },
  {
    "compound": "Cn1ccc2ncnc(Oc3ccc(NC(=O)Nc4ccnc(C(F)(F)F)c4)c(Cl)c3)c21",
    "category": 0
  },
  {
    "compound": "O=C(NCC1CC1)c1ccc(-c2cc(C(=O)NC3CC3)ccc2F)cc1",
    "category": 1
  },
  {
    "compound": "CC(C)S(=O)(=O)N1CCN(Cc2ccc3c(c2)nc(NC(=O)c2ccsc2)n3C[C@H](O)c2ccccc2)CC1",
    "category": 0
  },
  {
    "compound": "C[C@@H](Oc1cc(-n2cnc3cc(-c4cnn(C)c4)ccc32)sc1C(N)=O)c1ccccc1Cl",
    "category": 1
  },
  {
    "compound": "Cn1cc(-c2cccc3c(N)c(C(N)=O)nnc23)cn1",
    "category": 0
  },
  {
    "compound": "CC(C(=O)NC1CCN(c2ccnc(Nc3ccc(F)cc3)n2)C1)c1ccc(Cl)cc1 (stereo not drawn)",
    "category": 0
  },
  {
    "compound": "Cc1cccc(-c2nc(Nc3ccncc3)c3sccc3n2)n1",
    "category": 0
  },
  {
    "compound": "CCNCC(Cc1ccccc1)NC(=O)c1cc(Br)c(-c2ccnc3[nH]ccc23)s1.Cl.Cl (stereo not drawn)",
    "category": 0
  },
  {
    "compound": "CC(=O)c1c(-c2ccncc2)[nH]c(-c2ccncc2)c1C",
    "category": 0
  },
  {
    "compound": "Nc1nccc(-c2ccc3c(N)n[nH]c3c2)n1",
    "category": 0
  },
  {
    "compound": "O=C(NOCC1CC1)c1cc(Br)c(F)c(F)c1Nc1ccc(I)cc1Cl",
    "category": 0
  },
  {
    "compound": "CCN1CCN(CCCC(=O)Nc2n[nH]c3nc(-c4ccc(O)cc4)c(Br)cc23)CC1",
    "category": 0
  },
  {
    "compound": "Cc1cccc2c(-c3ccncc3)c(-c3ccc(F)cc3)nn12.Cl",
    "category": 0
  },
  {
    "compound": "CS(=O)c1ccc(-c2coc3ccc(-c4n[nH]c(=O)o4)cc23)cc1 (stereo not drawn)",
    "category": 0
  },
  {
    "compound": "C[C@@H]1CNc2c(sc3ccc4nc(-c5ccc(O)cc5)ccc4c23)C(=O)N1",
    "category": 0
  },
  {
    "compound": "CN(c1cccc(CNc2nc(Nc3ccc4c(c3)CC(=O)N4)ncc2C(F)(F)F)c1)S(C)(=O)=O",
    "category": 0
  },
  {
    "compound": "O=C(Nc1cccc(C(F)(F)F)c1)c1cccc(Oc2ccc3nccn3n2)c1",
    "category": 0
  },
  {
    "compound": "Cn1ccc2ncnc(Oc3ccc(NC(=O)Nc4cncc(C(F)(F)F)c4)c(Cl)c3)c21",
    "category": 0
  },
  {
    "compound": "Cl.c1ccc(Oc2ccc(Nc3ccnc4cc(-c5ccc(CN6CCNCC6)o5)ccc34)cc2)nc1",
    "category": 1
  },
  {
    "compound": "O=C(Nc1ccccc1)c1cccc(Oc2ccc3nccn3n2)c1",
    "category": 0
  }
]

###

Let's look at some compounds and their measured %Inh.
- System: SGK3
- experimental-parameters: concentration: 1 μM,replicates: in singlicate; n = 1
metric: %Inh (%)

[
  {
    "compound": "C[C@@H](Oc1cc(-n2cnc3ccc(-c4ccncc4)cc32)sc1C(N)=O)c1ccccc1Cl",
    "measure-unit": "%",
    "quantitative-result": 0
  },
  {
    "compound": "COC(=O)c1cccc(NC(=O)NC2CCN(c3ccnc(Nc4cc(OC)c(OC)c(OC)c4)n3)C2)c1 (stereo not shown)",
    "measure-unit": "%",
    "quantitative-result": 2
  },
  {
    "compound": "Cn1ccc2ncnc(Oc3ccc(NC(=O)Nc4cncc(C(F)(F)F)c4)c(Cl)c3)c21",
    "measure-unit": "%",
    "quantitative-result": 0
  },
  {
    "compound": "CC(C)c1nc(-c2cccc(NS(=O)(=O)c3ccccc3)c2)c(-c2ccnc(Nc3ccc4c(c3)CN(C)CC4)n2)s1",
    "measure-unit": "%",
    "quantitative-result": 53
  },
  {
    "compound": "CSc1nccc(-c2c(-c3ccc(F)cc3)ncn2CCCN2CCOCC2)n1.Cl",
    "measure-unit": "%",
    "quantitative-result": 13
  },
  {
    "compound": "Cn1cc(-c2cccc3c(N)c(C(N)=O)nnc23)cn1",
    "measure-unit": "%",
    "quantitative-result": 64
  },
  {
    "compound": "CN1CCN(CCCNc2nccc(-c3c(-c4ccc(F)cc4)nn4cc(C(N)=O)ccc34)n2)CC1",
    "measure-unit": "%",
    "quantitative-result": 8
  },
  {
    "compound": "Cc1ccc2c(-c3ccnc(Nc4ccc(C(F)(F)F)cc4)n3)cnn2n1",
    "measure-unit": "%",
    "quantitative-result": 0
  },
  {
    "compound": "COc1cc2c(Nc3ccc(NC(=O)c4ccccc4)cc3)ncnc2cc1OCCCN1CCOCC1",
    "measure-unit": "%",
    "quantitative-result": 1
  },
  {
    "compound": "C[C@@H]1CNc2c(sc3ccc4nc(-c5ccncc5)ccc4c23)C(=O)N1",
    "measure-unit": "%",
    "quantitative-result": 18
  },
  {
    "compound": "COc1cccc(CNC(=O)NC2CCN(c3ccnc(Nc4cc(OC)c(OC)c(OC)c4)n3)C2)c1 (stereo not shown)",
    "measure-unit": "%",
    "quantitative-result": 2
  },
  {
    "compound": "O=c1[nH]cc(-c2ccc(O)cc2)c2sc(-c3ccncc3)cc12",
    "measure-unit": "%",
    "quantitative-result": 2
  },
  {
    "compound": "Cc1ccc(C(=O)Nc2ccc(Oc3ccc4nc(NC(=O)C5CC5)cn4c3)c(F)c2)c(=O)n1-c1ccccc1",
    "measure-unit": "%",
    "quantitative-result": 0
  },
  {
    "compound": "NC(=O)Nc1sc(-c2ccc(F)cc2)cc1C(N)=O",
    "measure-unit": "%",
    "quantitative-result": 31
  },
  {
    "compound": "CCn1c(-c2nonc2N)nc2cncc(CNC3CCNCC3)c21.Cl",
    "measure-unit": "%",
    "quantitative-result": 43
  },
  {
    "compound": "Cc1ccn2nc(-c3ccc(F)cc3)c(-c3ccncc3)c2c1.Cl",
    "measure-unit": "%",
    "quantitative-result": 5
  },
  {
    "compound": "Cn1ccc2ncnc(Oc3ccc(NC(=O)Nc4cccc(C(F)(F)F)c4)c(Cl)c3)c21",
    "measure-unit": "%",
    "quantitative-result": 0
  },
  {
    "compound": "Cc1nnc(-c2ccc3occ(-c4ccc(S(C)=O)cc4)c3n2)o1 (stereo not shown)",
    "measure-unit": "%",
    "quantitative-result": 0
  },
  {
    "compound": "O=C(Nc1n[nH]c2cc(-c3ccco3)ccc12)C1CC1",
    "measure-unit": "%",
    "quantitative-result": 34
  },
  {
    "compound": "Cc1ccc(Nc2ccnc(Nc3ccc4c(c3)CS(=O)(=O)C4)n2)cc1O.Cl",
    "measure-unit": "%",
    "quantitative-result": 9
  },
  {
    "compound": "COc1cc2nccc(Nc3ccc(Oc4ccccc4)cc3)c2cc1OC.Cl",
    "measure-unit": "%",
    "quantitative-result": 0
  },
  {
    "compound": "Cn1ccc2ncnc(Oc3ccc(NC(=O)Nc4cccc(C(F)(F)F)c4)c(F)c3)c21",
    "measure-unit": "%",
    "quantitative-result": 2
  },
  {
    "compound": "O=C(NCC1CC1)c1ccc(-c2cc(C(=O)NC3CC3)ccc2F)cc1",
    "measure-unit": "%",
    "quantitative-result": 0
  },
  {
    "compound": "CS(=O)(=O)Nc1ccc(-c2ccnc3[nH]ccc23)cc1",
    "measure-unit": "%",
    "quantitative-result": 12
  },
  {
    "compound": "CN(c1ccc2c(c1)nc(NCc1ccc(F)cc1)n2C)c1ccnc(Nc2ccc(CS(C)(=O)=O)cc2)n1.Cl",
    "measure-unit": "%",
    "quantitative-result": 0
  },
  {
    "compound": "O=C(Nc1ccc(Oc2ccc3nc(NC(=O)C4CC4)cn3n2)c(F)c1)c1cccn(-c2ccccc2)c1=O",
    "measure-unit": "%",
    "quantitative-result": 0
  },
  {
    "compound": "O=C1NCCc2[nH]c(-c3ccncc3)cc21",
    "measure-unit": "%",
    "quantitative-result": 36
  },
  {
    "compound": "O=C(Nc1ccccc1)c1cccc(Oc2ccc3nccn3n2)c1",
    "measure-unit": "%",
    "quantitative-result": 17
  },
  {
    "compound": "COc1cc(Nc2nccc(N3CCC(NC(=O)c4cccc(C#N)c4)C3)n2)cc(OC)c1OC (stereo not shown)",
    "measure-unit": "%",
    "quantitative-result": 0
  },
  {
    "compound": "COc1cc2ncn(-c3cc(OCC4CCCCC4)c(C(N)=O)s3)c2cc1OC",
    "measure-unit": "%",
    "quantitative-result": 9
  },
  {
    "compound": "OCCn1cc(-c2cnc3nnn(Cc4ccc5ncccc5c4)c3n2)cn1",
    "measure-unit": "%",
    "quantitative-result": 15
  }
]
